Test: Ex vivo biodistribution in PC-3 tumor-bearing mice
Details: mouse, spleen, Uptake in spleen, 120 h post-injection
Description: SPECT/CT imaging experiments were performed using an MILabs (Houten, The Netherlands) U-SPECT-II/CT scanner with a custom-made ultra-high-sensitivity big mouse collimator (2 mm pinhole size) following previously reported procedures. […] For ex vivo biodistribution studies, the mice were injected with ~2–6 MBq of the radioligand. […] Organs/tissues of interested were collected, weighed, and measured using an automatic gamma counter.
Numbered stars: 1 amine (or outer) side, 2 acyl side, 3 side chain; on linkers, the order of the positions; unused ones are H or OH. Square brackets hold non-standard residues; d marks the D form. Peptide text beside a SMILES is read from it. * marks the point of attachment. DOTA = O=C(O)CN1CCN(CC(=O)O)CCN(CC(=O)*)CCN(CC(=O)O)CC1; NMeH = CN[C@@H](Cc1c[nH]cn1)C(=O)O; X1 = O=C(CN1CCC(N[*:1])CC1)[*:2]; Tle = CC(C)(C)[C@H](N)C(=O)O; Thz = O=C(O)[C@@H]1CSCN1
PARAMETER: tissue uptake at 120 h (%ID/g)
Give the quantity in %ID/g, number only.

**Q:** Can you share its tissue uptake at 120 h? I mean this compound: CC(C)C[C@@H](CN1CSC[C@H]1C(N)=O)NC(=O)[C@H](Cc1cnc[nH]1)NC(=O)CN(C)C(=O)[C@@H](NC(=O)[C@H](C)NC(=O)[C@H](Cc1c[nH]c2ccccc12)NC(=O)[C@H](CCC(N)=O)NC(=O)[C@@H](Cc1ccccc1)NC(=O)CN1CCC(NC(=O)CN2CCN(CC(=O)O)CCN(CC(=O)O)CCN(CC(=O)O)CC2)CC1)C(C)C [[^177Lu]Lu-TacsBOMB5, metal not drawn]
**A:** 0.14

**Q:** I have this compound here, CC(C)C[C@H](NC(=O)[C@H](Cc1cnc[nH]1)N(C)C(=O)CNC(=O)[C@@H](NC(=O)[C@H](C)NC(=O)[C@H](Cc1c[nH]c2ccccc12)NC(=O)[C@H](CCC(N)=O)NC(=O)[C@@H](Cc1ccccc1)NC(=O)CN1CCC(NC(=O)CN2CCN(CC(=O)O)CCN(CC(=O)O)CCN(CC(=O)O)CC2)CC1)C(C)(C)C)C(=O)N1CSC[C@H]1C(N)=O [[^177Lu]Lu-LW01110, metal not drawn] , and I need its recorded tissue uptake at 120 h.
**A:** 0.05

**Q:** So what does the record say about tissue uptake at 120 h for CC(C)C[C@H](NC(=O)[C@H](Cc1cnc[nH]1)N(C)C(=O)CNC(=O)[C@@H](NC(=O)[C@H](C)NC(=O)[C@H](Cc1c[nH]c2ccccc12)NC(=O)[C@H](Cc1c[nH]cn1)NC(=O)[C@@H](Cc1ccccc1)NC(=O)CN1CCC(NC(=O)CN2CCN(CC(=O)O)CCN(CC(=O)O)CCN(CC(=O)O)CC2)CC1)C(C)(C)C)C(=O)N1CSC[C@H]1C(N)=O [[^177Lu]Lu-LW01142, metal not drawn] ({DOTA}-[X1][dF]HWA[Tle]G[NMeH]L[Thz]-NH2) ?
**A:** 0.09
